biological target: ATP-citrate synthase (Rattus norvegicus, UniProt P16638); assay: Reversible inhibition of rat liver ACLY
Sequence (P16638 whole entry): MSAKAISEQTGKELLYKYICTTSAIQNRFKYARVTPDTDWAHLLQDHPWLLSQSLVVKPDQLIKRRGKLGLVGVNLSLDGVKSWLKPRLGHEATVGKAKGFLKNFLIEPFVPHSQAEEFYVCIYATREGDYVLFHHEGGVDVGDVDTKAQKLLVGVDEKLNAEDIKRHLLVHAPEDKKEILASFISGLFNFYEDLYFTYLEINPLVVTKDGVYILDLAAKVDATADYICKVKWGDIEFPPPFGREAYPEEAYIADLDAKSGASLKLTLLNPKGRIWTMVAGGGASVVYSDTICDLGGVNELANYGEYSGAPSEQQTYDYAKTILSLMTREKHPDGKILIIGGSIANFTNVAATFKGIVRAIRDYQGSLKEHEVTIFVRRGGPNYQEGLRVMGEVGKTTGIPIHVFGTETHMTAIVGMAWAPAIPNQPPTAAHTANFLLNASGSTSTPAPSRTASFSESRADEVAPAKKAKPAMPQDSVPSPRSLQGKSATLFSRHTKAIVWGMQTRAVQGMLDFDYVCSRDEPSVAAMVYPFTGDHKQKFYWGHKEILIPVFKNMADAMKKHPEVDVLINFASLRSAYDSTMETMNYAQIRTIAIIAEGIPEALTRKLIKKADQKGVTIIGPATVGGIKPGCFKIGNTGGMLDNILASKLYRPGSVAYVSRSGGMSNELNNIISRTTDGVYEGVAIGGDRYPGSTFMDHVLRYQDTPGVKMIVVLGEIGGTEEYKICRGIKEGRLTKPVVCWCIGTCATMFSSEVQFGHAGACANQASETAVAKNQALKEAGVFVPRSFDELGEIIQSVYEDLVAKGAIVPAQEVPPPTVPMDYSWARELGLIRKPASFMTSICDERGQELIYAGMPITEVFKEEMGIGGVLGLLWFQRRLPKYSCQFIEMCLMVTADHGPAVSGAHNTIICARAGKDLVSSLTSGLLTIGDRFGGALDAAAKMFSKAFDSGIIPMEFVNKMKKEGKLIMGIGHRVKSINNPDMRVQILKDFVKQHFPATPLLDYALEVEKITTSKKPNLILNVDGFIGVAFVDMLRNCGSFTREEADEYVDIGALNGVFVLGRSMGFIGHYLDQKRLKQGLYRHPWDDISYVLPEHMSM
property.name: Ki (µM)
Express the result in µM but write the number alone.

What does the data say about its Ki? Entry: CS(=N)(=O)C[C@@](O)(CC(=O)O)C(=O)O (stereo partly specified) 250

====

Molecular target: ATP-citrate synthase (Homo sapiens, UniProt P53396)
Sequence (P53396 whole entry): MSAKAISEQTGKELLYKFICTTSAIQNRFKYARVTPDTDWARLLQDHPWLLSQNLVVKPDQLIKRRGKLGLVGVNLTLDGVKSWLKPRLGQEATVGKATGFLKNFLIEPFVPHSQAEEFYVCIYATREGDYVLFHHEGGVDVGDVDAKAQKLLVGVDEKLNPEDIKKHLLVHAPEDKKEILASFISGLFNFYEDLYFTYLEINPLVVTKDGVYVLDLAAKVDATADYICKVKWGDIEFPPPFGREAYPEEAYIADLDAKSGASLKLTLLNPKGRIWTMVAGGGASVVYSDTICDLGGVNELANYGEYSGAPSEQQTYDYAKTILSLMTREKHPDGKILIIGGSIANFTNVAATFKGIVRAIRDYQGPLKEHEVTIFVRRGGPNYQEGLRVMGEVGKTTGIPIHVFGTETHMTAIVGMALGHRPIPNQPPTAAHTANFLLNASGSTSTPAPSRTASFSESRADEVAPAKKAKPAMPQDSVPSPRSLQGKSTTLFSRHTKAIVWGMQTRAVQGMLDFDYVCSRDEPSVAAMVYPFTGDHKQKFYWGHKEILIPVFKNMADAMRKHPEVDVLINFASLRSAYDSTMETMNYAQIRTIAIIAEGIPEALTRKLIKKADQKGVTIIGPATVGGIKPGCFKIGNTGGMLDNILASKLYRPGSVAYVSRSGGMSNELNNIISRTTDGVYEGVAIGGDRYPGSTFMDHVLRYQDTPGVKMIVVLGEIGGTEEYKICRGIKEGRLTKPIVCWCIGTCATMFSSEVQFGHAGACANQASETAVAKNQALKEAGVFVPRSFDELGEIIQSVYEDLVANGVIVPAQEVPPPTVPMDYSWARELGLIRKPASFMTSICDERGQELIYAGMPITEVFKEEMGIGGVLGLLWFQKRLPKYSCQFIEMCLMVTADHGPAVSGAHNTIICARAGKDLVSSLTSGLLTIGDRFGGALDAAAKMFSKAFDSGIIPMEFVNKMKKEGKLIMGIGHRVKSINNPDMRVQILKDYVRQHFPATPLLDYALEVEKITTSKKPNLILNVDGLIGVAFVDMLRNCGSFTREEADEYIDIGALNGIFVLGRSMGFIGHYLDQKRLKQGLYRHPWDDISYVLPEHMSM
property.name: pKi
API: returns pKi as number; meaning -log10 of concentration in mol/L.

Form field: reported pKi of `O=C(O)C[C@@](O)(C(=O)O)[C@H](O)C(=O)O` 3.52
